From: patent US20100196398A1

system_tested: T1, human CD105 (human, UniProt P17813 26-658)
T1 construct: whole, on cells; Target as carried by HUVEC cells in the FACS assays; also called endoglin; END
T1 sequence (looked up): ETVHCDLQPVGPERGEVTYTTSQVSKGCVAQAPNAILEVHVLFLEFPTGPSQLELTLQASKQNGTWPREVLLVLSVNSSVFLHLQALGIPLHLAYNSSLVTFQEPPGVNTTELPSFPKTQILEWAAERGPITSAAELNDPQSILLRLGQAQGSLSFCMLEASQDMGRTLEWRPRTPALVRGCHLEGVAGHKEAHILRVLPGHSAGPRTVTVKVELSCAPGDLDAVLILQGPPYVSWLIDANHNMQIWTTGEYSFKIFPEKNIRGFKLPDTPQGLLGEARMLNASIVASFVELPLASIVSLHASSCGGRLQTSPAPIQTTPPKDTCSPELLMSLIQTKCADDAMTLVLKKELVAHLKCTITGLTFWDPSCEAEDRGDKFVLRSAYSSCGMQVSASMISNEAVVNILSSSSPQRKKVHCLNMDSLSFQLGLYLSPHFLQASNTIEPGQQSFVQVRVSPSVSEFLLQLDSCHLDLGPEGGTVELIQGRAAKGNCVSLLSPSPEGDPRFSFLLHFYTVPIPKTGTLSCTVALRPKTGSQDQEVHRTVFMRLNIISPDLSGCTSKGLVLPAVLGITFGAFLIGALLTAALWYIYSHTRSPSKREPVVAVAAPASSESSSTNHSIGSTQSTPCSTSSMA
assay_notes: FACS KD determination on HUVEC cells, 4° C., nonlinear fit of geometric mean fluorescence
pKd: −log10 of the molar value.
// values below are reported pKd

# count of solved cases: 2
| binder | observed_result |
| --- | --- |
| fully human monoclonal antibody 9H10 (antibody, V domains shown, XenoMouse hybridoma antibody of Campaign 2 (IgG2 and IgG4 strains immunised with B300.19/human CD105 cells); also called 9H10.2) VH: QVQLVESGGGVVQPGRSLRLSCAASGFAFINYGMHWVRQAPGKGLDWVAVISYDGSNKYYTDSVKGRFTISRDNSKNTLYLQMNSLRAEDTAVYYCARDLMGATLFDNWGQGTLVTVSS VL: SYVLTQPPSVSVAPGQTARISCGGNNIGSKSVHWFQQKPGQAPVLVVYDDSDRPSGIPERFSGSNSGNTATLTISRVEAGDEADYYCQVWDSSSDHVVFGGGTKLTVL | > 9.23 |
| fully human monoclonal antibody 6B10 (antibody, V domains shown, XenoMouse hybridoma antibody of Campaign 2 (IgG2 and IgG4 strains); also called 6B10.1; mAb 6B10) VH: QEQLVESGGGVVQPGRSLRLSCTASGFTFSNYGIHWVRQAPGKGLEWVTVISYDGSKKYYADSVKGRFTISRDNSKNTLYLQMNSLRAEDTAVYYCARAFSTMVRGVDHWGQGTLVTVSS VL: DIQMTQSPSSLSASVGDRVTITCQASQDIYKSLNWYQQRPGKAPNLLIYDASNLETGVPSRFSGSGSGTDFTFTISSLQPEDFARYFCQQYDNLPLTFGGGTRVEIK | > 9.83 |

Now for another entry.
(Q) Quick check: pKd of fully human monoclonal antibody 6A6 (antibody, V domains shown, XenoMouse hybridoma antibody of Campaign 2 (IgG2 and IgG4 strains); also called 6A6.2) VH: EVQLLESGGGLVQPGGSLRLSCAASGFTFSSYAMSWVRQAPGKGLEWVSTISGGGHSTYYADSVKGRFTISRDNSKNTLYLQMNSLRAEDTAVYYCARIAPAGPHFDYWGQGTLVTVSS VL: NFMLTQPHSVSESPGKTVTFSCTRSSGSIASNFVQWYQQRPGSSPTTVIYEHNQRPSGVPDRFSGSIDSSSSSASLTISGLKTEDEADYYCQFYDRNSHWVFGGGTKLTVL ?
(A) > 8.94
